B1: CLCN6 (parent)
chain: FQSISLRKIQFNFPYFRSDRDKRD

# Variants of: B1
# ASSAY_TEXT: protein stability index of a GFP-peptide fusion (GPS, HEK-293T) (PSI 1-6); higher = more stable;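 further: lentivirally expressed fusions sorted by FACS into six bins by GFP to DsRed ratio, PSI derived from sequencing read proportions per bin multiplied by bin number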
# CONDITION_PARAMETERS: c terminus: a fixed tail appended
READOUT_TYPE: protein stability index
# print the numeric value only

VARIANT_ID	protein stability index
S5A	1.82
R20W	3.61
R7P	3.68
D24E	1.93
F11H	1.74

# query: protein stability index of entry D24N
1.49

# query: protein stability index of entry D21S
3.06

# query: protein stability index of entry Q10K
1.67

# query: protein stability index of entry R7K
1.59

# query: protein stability index of entry R17H
2.35

# query: protein stability index of entry S3Q
1.66

# query: protein stability index of entry R7N
1.97

# query: protein stability index of entry D19S
1.33

# query: protein stability index of entry Q10A
1.56

# query: protein stability index of entry F1I
2.16

# query: protein stability index of entry K8E
2.63

# query: protein stability index of entry F11Q
1.25

# query: protein stability index of entry K22S
2.72

# query: protein stability index of entry I4A
2.71

# query: protein stability index of entry I9P
1.65

# query: protein stability index of entry K22T
2.17

# query: protein stability index of entry L6Q
2.13

# query: protein stability index of entry Q10V
2.31

# query: protein stability index of entry S3T
1.79
